A collection of molecules and their measured pIC50
# target_under_test: full length human TREX1 (Homo sapiens)
# Construct: N-terminally His-Tev tagged full length human TREX1; made in house; host or cells: E. coli
# test_details: hTREX1 Biochemical Assay (fluorescence, dsDNA substrate degradation)
# measurement_parameters: biochemical, read-out: hTREX1 IC50
pIC50: −log10 of the molar value.

Cc1c(C(c2ccccc2C#N)C(C)c2nc(C(=O)Nc3cnoc3)c(O)c(=O)n2C)cnn1C (single isomer, unassigned) [Example 4 D2E1]	< 8.00
COC(C)(C)Cn1cc(C(c2ccccc2C#N)C(C)c2nc(C(=O)Nc3cnoc3)c(O)c(=O)n2C)cn1 (single isomer, unassigned) [Example 37 D2E1]	< 8.00
Cc1nccc(C(c2ccccc2C#N)C(C)c2nc(C(=O)Nc3cnoc3)c(O)c(=O)n2C)n1 (single isomer, unassigned) [Example 83 D2E1]	8.00 to 9.00

Asked: Fill in the blank: the reported pIC50 of Cc1cc(C(c2cc(F)ccc2C#N)C(C)c2nc(C(=O)Nc3cnoc3)c(O)c(=O)n2C)n(C)n1 (single isomer, unassigned) [Example 111 D1E1] is ____.
Given back: < 8.00

Asked: Next: COC(C)(C)Cn1cc(C(c2cc(F)ccc2Cl)C(C)c2nc(C(=O)Nc3cnoc3)c(O)c(=O)n2C)cn1 (single isomer, unassigned) [Example 93 D1E2]
Given back: 8.00 to 9.00

Asked: Can you check CCn1cc(C(c2ccccc2Cl)C(C)c2nc(C(=O)Nc3cnoc3)c(O)c(=O)n2C)cn1 (single isomer, unassigned) [Example 85 D2E1] next?
Given back: < 8.00

###

# target_under_test: full length human TREX1 (Homo sapiens, UniProt Q9NSU2)
# Construct: N-terminally His-Tev tagged full length human TREX1; made in house; host or cells: E. coli
# Sequence (Q9NSU2 1-314): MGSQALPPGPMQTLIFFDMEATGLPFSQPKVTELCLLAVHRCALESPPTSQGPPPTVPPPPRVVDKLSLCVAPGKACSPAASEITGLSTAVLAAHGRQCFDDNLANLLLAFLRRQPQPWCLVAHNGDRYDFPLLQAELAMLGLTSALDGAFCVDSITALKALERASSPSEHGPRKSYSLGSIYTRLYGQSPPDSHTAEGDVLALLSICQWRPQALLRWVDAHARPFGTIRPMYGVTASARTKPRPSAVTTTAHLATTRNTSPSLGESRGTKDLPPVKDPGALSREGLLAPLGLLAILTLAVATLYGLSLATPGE
# test_details: TREX1 Kinetics Assays (TR-FRET association and dissociation, global fit with Kintek Explorer)
# Type: binding
# measurement_parameters: hTREX1, TR-FRET, 25° C., global fit
endpoint: koff (s⁻¹)

Use these answered entries as a reference point.
CC(c1nc(C(=O)Nc2cnoc2)c(O)c(=O)n1C)C(c1cnn(CC(F)(F)F)c1)c1ccccc1C#N (single isomer, unassigned)	6.5e-05
CCn1cc(C(c2cc(F)ccc2C#N)C(C)c2nc(C(=O)Nc3cnoc3)c(O)c(=O)n2C)cn1 (single isomer, unassigned)	4.72e-05

A = Cc1ncc(C(c2cc(F)ccc2C#N)C(C)c2nc(C(=O)Nc3cnoc3)c(O)c(=O)n2C)nc1C (single isomer, unassigned)
B = CCn1cc(C(c2ccccc2C#N)C(C)c2nc(C(=O)Nc3cnoc3)c(O)c(=O)n2C)cn1 (single isomer, unassigned)
C = CC(c1nc(C(=O)Nc2cnoc2)c(O)c(=O)n1C)C(c1cnn(C)c1)c1ccccc1Cl (single isomer, unassigned)
Asked: Order these by koff, descending, and give the full ranking. Rank them, then answer with their labels in that order.
Given back: C, B, A
(C: 7.77e-05 s⁻¹, B: 4.5e-05 s⁻¹, A: 2.25e-05 s⁻¹)
